Each record here notes measured IC50.
biological target: F36A mutant FKBP; test: Competitive Binding FP Assay; parameters: species or system human; conditions: Synthetic Monomers table; normalized to value of FK506 run in the same experiment
property: IC50 (nM)

>>> df
                                   compound  meas_value
0  COc1ccc(CC[C@@H](OC(=O)[C@@H]2CCCCN2C(=O)[C@H](C)c2ccccc2)c2cccc(OCC(=O)O)c2)cc1OC        1430
1  COc1ccc(CC[C@@H](OC(=O)[C@@H]2CCCCN2C(=O)C(c2ccccc2)c2ccccc2)c2cccc(OCC(=O)O)c2)cc1OC         127
2  CCC(C(=O)N1CCCC[C@H]1C(=O)O[C@H](CCc1ccc(OC)c(OC)c1)c1cccc(OCC(=O)O)c1)c1ccc2c(c1)OCO2 (stereo partly drawn)          32
3  COc1ccc(CC[C@@H](OC(=O)[C@@H]2CCCCN2C(=O)[C@@H](C)c2ccccc2)c2cccc(OCC(=O)O)c2)cc1OC         171
4  COc1ccc(CC[C@@H](OC(=O)[C@@H]2CCCCN2C(=O)Cc2ccccc2)c2cccc(OCC(=O)O)c2)cc1OC        8330
5  CC[C@@H](C(=O)N1CCCC[C@H]1C(=O)O[C@H](CCc1ccc(OC)c(OC)c1)c1cccc(OCC(=O)O)c1)c1ccccc1         460
